Just for reference, ChEMBL document CHEMBL1122981 is where these values come from.

biological target: GABA-A receptor; anion channel (Bos taurus) (UniProt P10063+P08220+P20237+P08219+P10064+P22300); test: Inhibition of specific [3H]flunitrazepam binding to benzodiazepine receptor at 250 uM; format: protein-complex assay
Collected inhibition values appear next to each entry.
Only the number, expressed in %, is required.

These recorded examples may help you get a feel for the data.
• COc1ccc2[nH]cc(C(=O)C(=O)NC(C(=O)O)C(C)C)c2c1 (stereo not drawn) = 12
• COC(=O)C(Cc1ccc(O)cc1)NC(=O)C(=O)c1c[nH]c2ccccc12 (stereo not drawn) = 50
• COC(=O)C(Cc1ccc(O)cc1)NC(=O)C(=O)c1c[nH]c2ccc([N+](=O)[O-])cc12 (stereo not drawn) = 100
• CCOC(=O)C(C)NC(=O)C(=O)c1c[nH]c2ccc(Cl)cc12 (stereo not drawn) = 100

### Prompt If you can, please state the reported inhibition value of O=C(NC(Cc1c[nH]c2ccccc12)C(=O)O)C(=O)c1c[nH]c2ccc(Br)cc12 (stereo not drawn) .
### Response 66

### Prompt Now consider CCOC(=O)C(C)NC(=O)C(=O)c1c[nH]c2ccccc12 (stereo not drawn) .
### Response 80

### Prompt Now consider O=C(O)CNC(=O)C(=O)c1c[nH]c2ccccc12 .
### Response 20

### Prompt Now consider CCOC(=O)C(Cc1ccc(O)cc1)NC(=O)C(=O)c1c[nH]c2ccc(Br)cc12 (stereo not drawn) .
### Response 68

### Prompt Now consider CCOC(=O)C(Cc1c[nH]c2ccccc12)NC(=O)C(=O)c1c[nH]c2ccccc12 (stereo not drawn) .
### Response 70

### Prompt Now consider CC(NC(=O)C(=O)c1c[nH]c2ccc([N+](=O)[O-])cc12)C(=O)O (stereo not drawn) .
### Response 94

### Prompt Now consider CCOC(=O)CNC(=O)C(=O)c1c[nH]c2ccc(Br)cc12 .
### Response 100

### Prompt Now consider O=C(NC(Cc1ccc(O)cc1)C(=O)O)C(=O)c1c[nH]c2ccc([N+](=O)[O-])cc12 (stereo not drawn) .
### Response 81

### Prompt Now consider CCOC(=O)CNC(=O)C(=O)c1c[nH]c2ccccc12 .
### Response 84

### Prompt Now consider CCOC(=O)C(Cc1ccc(O)cc1)NC(=O)C(=O)c1c[nH]c2ccc(Cl)cc12 (stereo not drawn) .
### Response 89

### Prompt Now consider CCOC(=O)C(NC(=O)C(=O)c1c[nH]c2ccccc12)C(C)C (stereo not drawn) .
### Response 77

====

molecular target: GABA-A receptor; anion channel (Bos taurus) (UniProt P10063+P08220+P20237+P08219+P10064+P22300); assay: Inhibition of specific [3H]flunitrazepam binding to benzodiazepine receptor at 250 uM; format: protein-complex assay
Threshold rule: inhibition greater than or equal to 70% is Criterion met; below that, Criterion not met.

Some solved cases for reference:
• CCOC(=O)C(NC(=O)C(=O)c1c[nH]c2ccc(Br)cc12)C(C)C (stereo not given) = Criterion met
• COc1ccc2[nH]cc(C(=O)C(=O)NC(Cc3ccccc3)C(=O)O)c2c1 (stereo not given) = Criterion not met

### Prompt Would you say CCOC(=O)C(NC(=O)C(=O)c1c[nH]c2ccc(OC)cc12)C(C)C (stereo not given) shows inhibition at minimum 70%?
### Response Criterion not met

### Prompt Now consider CCOC(=O)C(C)NC(=O)C(=O)c1c[nH]c2ccc([N+](=O)[O-])cc12 (stereo not given) .
### Response Criterion met

====

target: GABA-A receptor; anion channel (Bos taurus) (UniProt P10063+P08220+P20237+P08219+P10064+P22300); test: Inhibition of specific [3H]flunitrazepam binding to benzodiazepine receptor at 250 uM; format: protein-complex assay
Collected inhibition values appear next to each entry.
Only the number, expressed in %, is required.

These recorded examples may help you get a feel for the data.
• CC(NC(=O)C(=O)c1c[nH]c2ccc(Cl)cc12)C(=O)O (centres undefined) = 93
• O=C(NC(Cc1c[nH]c2cc([N+](=O)[O-])ccc12)C(=O)O)C(=O)c1c[nH]c2ccccc12 (centres undefined) = 31
• CC(C)C(NC(=O)C(=O)c1c[nH]c2ccc([N+](=O)[O-])cc12)C(=O)O (centres undefined) = 83
• CCOC(=O)C(Cc1ccccc1)NC(=O)C(=O)c1c[nH]c2ccc(Br)cc12 (centres undefined) = 65

### Prompt If you can, please state the reported inhibition value of CCOC(=O)C(C)NC(=O)C(=O)c1c[nH]c2ccc(Br)cc12 (centres undefined) .
### Response 100

### Prompt Now consider O=C(NC(Cc1c[nH]c2ccccc12)C(=O)O)C(=O)c1c[nH]c2ccccc12 (centres undefined) .
### Response 11

### Prompt Now consider CCOC(=O)C(Cc1c[nH]c2cc([N+](=O)[O-])ccc12)NC(=O)C(=O)c1c[nH]c2ccccc12 (centres undefined) .
### Response 48

### Prompt Now consider CC(C)C(NC(=O)C(=O)c1c[nH]c2ccc(Br)cc12)C(=O)O (centres undefined) .
### Response 72

### Prompt Now consider O=C(NC(Cc1c[nH]c2ccccc12)C(=O)O)C(=O)c1c[nH]c2ccc(Cl)cc12 (centres undefined) .
### Response 61

====

molecular target: GABA-A receptor; anion channel (Bos taurus) (UniProt P10063+P08220+P20237+P08219+P10064+P22300); assay: Inhibition of specific [3H]flunitrazepam binding to benzodiazepine receptor at 250 uM; assay type: protein-complex assay
Threshold rule: inhibition greater than or equal to 60% is TRUE; below that, FALSE.

• O=C(NC(Cc1ccc(O)cc1)C(=O)O)C(=O)c1c[nH]c2ccc(Cl)cc12 (stereo not given) = TRUE
• O=C(NC(Cc1ccccc1)C(=O)O)C(=O)c1c[nH]c2ccc(Br)cc12 (stereo not given) = TRUE
• O=C(NC(Cc1ccc(O)cc1)C(=O)O)C(=O)c1c[nH]c2ccccc12 (stereo not given) = FALSE

API: the following record is the query input.
### Prompt Would you say O=C(NC(Cc1ccc(O)cc1)C(=O)O)C(=O)c1c[nH]c2ccc(Br)cc12 (stereo not given) shows inhibition at minimum 60%?
### Response FALSE

====

biological target: GABA-A receptor; anion channel; assay: Inhibition of [3H]flunitrazepam binding to GABA-A central Benzodiazepine receptor of bovine brain membranes
attribute_measured: pIC50
Give only the number. pIC50 is defined as minus log10 of concentration in molar units.

### Prompt If you can, please state the reported pIC50 value of CN1C(=O)CN=C(c2ccccc2)c2cc(Cl)ccc21 [DIAZEPAM] .
### Response 7.39

### Prompt Now consider CC(C)C(NC(=O)C(=O)c1c[nH]c2ccc([N+](=O)[O-])cc12)C(=O)O (stereo unspecified) .
### Response 4.22

### Prompt Now consider CCOC(=O)CNC(=O)C(=O)c1c[nH]c2ccc(Br)cc12 .
### Response 5.70

====

target: GABA-A receptor; anion channel (Bos taurus) (UniProt P10063+P08220+P20237+P08219+P10064+P22300); test: Inhibition of specific [3H]flunitrazepam binding to benzodiazepine receptor at 250 uM; format: protein-complex assay
Collected inhibition values appear next to each entry.
Only the number, expressed in %, is required.

* CCOC(=O)C(NC(=O)C(=O)c1c[nH]c2ccc(Cl)cc12)C(C)C (stereo not drawn) | 62
* CC(C)C(NC(=O)C(=O)c1c[nH]c2ccc(Cl)cc12)C(=O)O (stereo not drawn) | 68
* CCOC(=O)CNC(=O)C(=O)c1c[nH]c2ccc(Cl)cc12 | 100

### Prompt If you can, please state the reported inhibition value of O=C(O)CNC(=O)C(=O)c1c[nH]c2ccc(Cl)cc12 .
### Response 82

### Prompt Now consider CCOC(=O)C(Cc1c[nH]c2ccccc12)NC(=O)C(=O)c1c[nH]c2ccc(Cl)cc12 (stereo not drawn) .
### Response 55

### Prompt Now consider CCOC(=O)C(Cc1c[nH]c2ccccc12)NC(=O)C(=O)c1c[nH]c2ccc(Br)cc12 (stereo not drawn) .
### Response 100

### Prompt Now consider CC(C)C(NC(=O)C(=O)c1c[nH]c2ccccc12)C(=O)O (stereo not drawn) .
### Response 28

### Prompt Now consider CCOC(=O)C(Cc1ccccc1)NC(=O)C(=O)c1c[nH]c2ccc(OC)cc12 (stereo not drawn) .
### Response 60

====

Collected IC50 values appear next to each entry.
target: GABA-A receptor; anion channel; assay: Inhibition of [3H]flunitrazepam binding to GABA-A central Benzodiazepine receptor of bovine brain membranes
Only the number, expressed in µM, is required.

* CCOC(=O)C(C)NC(=O)C(=O)c1c[nH]c2ccc(Br)cc12 (stereo not drawn) | 4.8
* CNC1=Nc2ccc(Cl)cc2C(c2ccccc2)=[N+]([O-])C1 [CHLORDIAZEPOXIDE] | 1.1
* O=C(O)CNC(=O)C(=O)c1c[nH]c2ccc(Cl)cc12 | 38
* CCOC(=O)C(Cc1ccc(O)cc1)NC(=O)C(=O)c1c[nH]c2ccc(Cl)cc12 (stereo not drawn) | 80

### Prompt If you can, please state the reported IC50 value of O=C1CN=C(c2ccccc2)c2cc([N+](=O)[O-])ccc2N1 [NITRAZEPAM] .
### Response 0.038

### Prompt Now consider CCOC(=O)C(C)NC(=O)C(=O)c1c[nH]c2ccc(Cl)cc12 (stereo not drawn) .
### Response 0.5

### Prompt Now consider CC(NC(=O)C(=O)c1c[nH]c2ccc([N+](=O)[O-])cc12)C(=O)O (stereo not drawn) .
### Response 6.2

### Prompt Now consider CCOC(=O)CNC(=O)C(=O)c1c[nH]c2ccc(Cl)cc12 .
### Response 5.4

### Prompt Now consider COC(=O)C(Cc1ccc(O)cc1)NC(=O)C(=O)c1c[nH]c2ccc([N+](=O)[O-])cc12 (stereo not drawn) .
### Response 20

### Prompt Now consider CCOC(=O)C(C)NC(=O)C(=O)c1c[nH]c2ccc([N+](=O)[O-])cc12 (stereo not drawn) .
### Response 0.2

### Prompt Now consider CC(NC(=O)C(=O)c1c[nH]c2ccc(Cl)cc12)C(=O)O (stereo not drawn) .
### Response 22

### Prompt Now consider CCOC(=O)C(Cc1c[nH]c2ccccc12)NC(=O)C(=O)c1c[nH]c2ccc(Br)cc12 (stereo not drawn) .
### Response 22

### Prompt Now consider O=C(NC(Cc1ccc(O)cc1)C(=O)O)C(=O)c1c[nH]c2ccc([N+](=O)[O-])cc12 (stereo not drawn) .
### Response 75
